// data source = paper PMC5642477

target: UniProt:O00408; test: IMAP fluorescence polarization PDE assay, recombinant PDE isozymes; format: biochemical; conditions: substrate cAMP; read-out: IC50 of PQ10 cAMP
Sequence (O00408 whole entry): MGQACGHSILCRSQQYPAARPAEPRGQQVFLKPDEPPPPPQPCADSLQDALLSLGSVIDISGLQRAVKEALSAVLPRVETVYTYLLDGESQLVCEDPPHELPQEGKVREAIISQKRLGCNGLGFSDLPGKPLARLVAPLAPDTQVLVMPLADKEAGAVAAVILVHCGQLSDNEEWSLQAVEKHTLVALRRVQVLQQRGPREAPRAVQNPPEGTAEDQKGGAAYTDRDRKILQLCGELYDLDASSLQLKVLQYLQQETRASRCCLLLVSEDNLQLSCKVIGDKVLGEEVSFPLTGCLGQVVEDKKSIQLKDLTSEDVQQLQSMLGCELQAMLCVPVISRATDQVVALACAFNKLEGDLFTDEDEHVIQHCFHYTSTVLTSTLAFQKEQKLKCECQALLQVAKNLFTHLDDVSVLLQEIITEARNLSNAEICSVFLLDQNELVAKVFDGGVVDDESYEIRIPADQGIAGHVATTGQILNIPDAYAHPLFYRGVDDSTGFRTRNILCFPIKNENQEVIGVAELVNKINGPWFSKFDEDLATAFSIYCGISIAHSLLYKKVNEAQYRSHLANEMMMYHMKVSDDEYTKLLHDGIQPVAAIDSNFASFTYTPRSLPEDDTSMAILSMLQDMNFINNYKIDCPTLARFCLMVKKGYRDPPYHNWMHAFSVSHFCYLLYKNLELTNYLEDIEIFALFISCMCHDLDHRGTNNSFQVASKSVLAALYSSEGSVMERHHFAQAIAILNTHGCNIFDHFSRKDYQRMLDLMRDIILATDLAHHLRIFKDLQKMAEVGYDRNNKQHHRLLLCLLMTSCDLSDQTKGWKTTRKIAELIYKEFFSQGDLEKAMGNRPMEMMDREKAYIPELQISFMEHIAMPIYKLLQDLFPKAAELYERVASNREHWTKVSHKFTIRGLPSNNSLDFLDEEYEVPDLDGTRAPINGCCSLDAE
pIC50: −log10 of the molar value.

>  <Query Smiles>
COc1cc2ncnc(N3CC[C@@H](Oc4cnc5ccccc5n4)C3)c2cc1OC

>  <pIC50>
5.15

$$$$

----------
Target: PDE5A (Homo sapiens, UniProt O76074)
Assay: IMAP fluorescence polarization PDE assay, recombinant PDE isozymes
Conditions: substrate cGMP; read-out: IC50 of PQ10 cGMP
Procedure: The enzymatic activity of recombinant PDE or PDE activities in cell lysates were measured using the IMAP fluorescence polarization (FP) PDE assay (Molecular Devices) as previously described. PDE10 inhibitors and DMSO as the vehicle were added to assay buffer 10 minutes before the incubation with the enzyme reaction. Fluorescence polarization values were measured using Synergy H4 Hybrid Reader (BioTek).

>  <Query Smiles>
COc1cc2ncnc(N3CC[C@@H](Oc4cnc5ccccc5n4)C3)c2cc1OC

>  <IC50 / nM>
1800

$$$$
